Cited source for all entries: paper PMC11855827

Assignment: determine reported inhibition at 110 µM for the given compounds.
# System: C. elegans
# assay_details: microbe, parasite or virus in culture
# condition_description: Caenorhabditis elegans, 24 h, read-out: Percentage of motility inhibition 24 h, Table S2, C. elegans SS assay, 110 μM, 24 h, averages of 4 data points
Entry rule: numbers only, all in %.

Given the compound O=C(O)CCC(=O)Nc1ccc(S(=O)(=O)Nc2nccs2)cc1 , write its reported inhibition at 110 µM.
17

Quick one: give measured inhibition at 110 µM for CC1(C)CC[C@]2(C(=O)O)[C@H](O)C[C@]3(C)C(=CC[C@@H]4[C@@]5(C)CC[C@H](O)[C@@](C)(C=O)[C@@H]5CC[C@]43C)[C@@H]2C1
16

Consider the compound CCN1C[C@]2(COC)CC[C@H](O)[C@]34C1[C@@](O)([C@@H](OC)[C@H]23)[C@@]1(O)C[C@H](OC)[C@H]2C[C@@H]4[C@@H]1[C@H]2OC and give its recorded inhibition at 110 µM.
0

###

# Test system: C. elegans
# assay_details: microbe, parasite or virus in culture
# condition_description: Caenorhabditis elegans, 0 h, read-out: Percentage of motility inhibition 0 h, Table S2, C. elegans SS assay, 110 μM, 0 h, averages of 4 data points
Counter-ions that a name gives are not always drawn.
readout_type: inhibition at 110 µM (%)
The answer is to be given in %; state only the numeric part.

Answer briefly: inhibition at 110 µM recorded on C. elegans for CC(CC(=O)C[C@@H](C)[C@H]1CC(=O)[C@@]2(C)C3=C(C(=O)C[C@]12C)[C@@]1(C)CC[C@H](O)C(C)(C)[C@@H]1C[C@@H]3O)C(=O)O (stereo partly drawn)
0

Write down measured inhibition at 110 µM (C. elegans) for this compound. O=c1ccc2nccc3c4ccccc4n1c23
0

State recorded inhibition at 110 µM with C. elegans, entry C=C(C)[C@@H]1CCC2=CC(=O)C[C@@H](C)[C@]2(C)C1 , no comment.
28

For C. elegans, give the measured inhibition at 110 µM of the entry Nc1ccn([C@@H]2CS[C@H](CO)O2)c(=O)n1
23

Report inhibition at 110 µM on C. elegans for this entry: Cc1cc(C#N)cc(C)c1Oc1nc(Nc2ccc(C#N)cc2)nc(N)c1Br
17

# assay system C. elegans: give inhibition at 110 µM of C[C@@H]1O[C@@H](O[C@H]2[C@H](Oc3cc(O)c4c(c3)O[C@H](c3ccc(O)cc3)CC4=O)O[C@H](CO)[C@@H](O)[C@@H]2O)[C@H](O)[C@H](O)[C@H]1O
0

Fetch value of inhibition at 110 µM on C. elegans for C[C@H]1COC2(CCN(c3nc(=O)c4cc(C(F)(F)F)cc([N+](=O)[O-])c4s3)CC2)O1 .
0

Recall the reported inhibition at 110 µM of C[C@H](O)[C@H](O)[C@H]1CNc2nc(N)[nH]c(=O)c2N1 [Tetrahydrobiopterin] on C. elegans and write it down.
0

State inhibition at 110 µM (C. elegans) of Cc1ncc(C[n+]2csc(CCO)c2C)c(N)n1 [Thiamine monochloride] .
13

Report its inhibition at 110 µM with C. elegans as the test system: CN1CCc2cc3c(cc2C1O)OCO3 (stereo not drawn) [Hydrastinine]
1

Report measured inhibition at 110 µM on C. elegans; entry: OB1OCc2cc(F)ccc21
0

Recall the reported inhibition at 110 µM of CC[C@H]1CN2CC[C@@]3(C(=O)Nc4ccccc43)[C@@H]2C[C@@H]1/C(=C\OC)C(=O)OC on C. elegans and write it down.
0

Give inhibition at 110 µM only, for COc1ccc(-c2cc(=O)c3c(O)c(OC)c(OC)cc3o2)cc1O , using C. elegans data.
7

Look up and report inhibition at 110 µM, with C. elegans as system, for O=C(O)[C@@H]1CCCN1
0

Provide inhibition at 110 µM, recorded with C. elegans, of CCn1cc(C(=O)O)c(=O)c2cnc(N3CCNCC3)nc21
31

With C. elegans as the test system, provide measured inhibition at 110 µM for this compound: CC(C)(C)C(O)(CCc1ccc(Cl)cc1)Cn1cncn1 (stereo not drawn)
32

Param request: inhibition at 110 µM | system C. elegans | item N[C@@H](Cc1c[nH]c2ccc(O)cc12)C(=O)O [5-Hydroxytryptophan]
28

Answer briefly: inhibition at 110 µM recorded on C. elegans for COC(=O)/C=C/C(=O)O [Monomethyl fumarate]
0
